experiment: NCI Yeast Anticancer Drug Screen. Data for the cln2 rad14 strain (AID 165);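 also: 0% = growth equal to vehicle treated cultures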; conditions: S. cerevisiae cln2 rad14 strain, at 50.0 µM, active compounds read high
The panel holds about 79,000 compounds, 15% with a hit somewhere; the sample as a whole holds those more often.
assay readout: growth inhibition (%)
Numbers only, in %.

Report growth inhibition for every entry below.
1. COC(=O)C(=O)C(C(C)=O)C(=O)C(=O)Nc1ccc(C)cc1C (stereo unspecified)
2. C[C@]1(CO)[C@H]2CC[C@@]34C=C[C@@](CO)(CC[C@H]3[C@]2(C)CC[C@H]1O)C4
3. CCN(CC)C(=O)COc1ccc(Cl)cc1
4. CSc1ccccc1N1C(=O)CSC1=S

Return:
[15.2, 6.4, -41.7, 19.1]

Report growth inhibition for every entry below.
1. Cc1ccc(S(=O)(=O)OCC2=C(COS(=O)(=O)c3ccc(C)cc3)C3c4ccccc4C2c2ccccc23)cc1
2. Cc1[nH]c2ccccc2c1C1=CC(=O)c2ccccc2C1=O
3. Cc1nc(-c2ccc([N+](=O)[O-])cc2)cn2c1nc1ccccc12
4. CCN(CCO)CCCC(C)Nc1ccnc2cc(Cl)ccc12 (stereo unspecified)
5. CC(=O)COc1ccccc1[N+](=O)[O-]
6. CCCCCCCCCCCCCCCCCC(=O)OC(C(O)C=O)C(O)C(O)CO (stereo unspecified)
7. C=CCNc1nc2c(s1)CCc1cc(OC)c(OC)cc1-2
8. Cc1cc2c(C(C)C)c(O)c(O)c(C=Nc3ccccc3O)c2c(O)c1-c1c(C)cc2c(C(C)C)c(O)c(O)c(C=Nc3ccccc3O)c2c1O

Return:
1. -27.8
2. 2.6
3. -67.6
4. -132
5. 8.95
6. 23.9
7. 29.4
8. -23.4
